Test system: antibodies in sera from SARS patients (sera 1a, 1b, 2, 6, 37, 62, London, SARS-yellow, SARS-green)
Assay type: binding, human
measured-attribute: Binding of serum 1b to looped/cyclic peptides of protein X2 of SARS-CoV Urbani
One number for each entry.

Below, 4 sequences whose answers are already recorded.
SQIQLSLLKVTAFQH | 0.5
TTSLSLHKLLQTLVL | 0.4
KLLQTLVLKMLHSSS | 0.5
KYTQSTALQELLIQQ | 1.0

Please go through the list and note Binding of serum 1b to looped/cyclic peptides of protein X2 of SARS-CoV Urbani for each sequence.
1. RMCKYTQSTALQELL
2. AISPKFTTSLSLHKL
3. STNLCTHSFRKKQVR
4. ITVSQIQLSLLKVTA
5. TVSQIQLSLLKVTAF

[0.7, 0.6, 0.3, 0.5, 0.5]

====

System: antibodies in sera from SARS patients (sera 1a, 1b, 2, 6, 37, 62, London, SARS-yellow, SARS-green)
Assay type: binding, human
The label depends only on Binding of serum 2 to linear peptides of protein X4 of SARS-CoV Urbani: True if it is at least 0.4, False if it is smaller.

TSCELYHYQECVRGT | False

I'd appreciate it if you could say whether `DGTRHTYQLRARSVS` has Binding of serum 2 to linear peptides of protein X4 of SARS-CoV Urbani at least equal to 0.4.
True

I'd appreciate it if you could say whether `QEEVQQELYSPLFLI` has Binding of serum 2 to linear peptides of protein X4 of SARS-CoV Urbani at least equal to 0.4.
True

I'd appreciate it if you could say whether `FIRQEEVQQELYSPL` has Binding of serum 2 to linear peptides of protein X4 of SARS-CoV Urbani at least equal to 0.4.
True

====

System: antibodies in sera from SARS patients (sera 1a, 1b, 2, 6, 37, 62, London, SARS-yellow, SARS-green)
Format: binding, human
measured-attribute: Binding of serum SARS-green to looped/cyclic peptides of protein X4 of SARS-CoV Urbani
Give bare numbers.

VLLKEPCPSGTYEGN | 0.5
QELYSPLFLIVAALV | 0.6
KLFIRQEEVQQELYS | 0.8
VSPKLFIRQEEVQQE | 1.2
SPKLFIRQEEVQQEL | 0.2
PLFLIVAALVFLILC | 0.2
ILFLTLIVFTSCELY | 0.4

Could you now consider this next sequence?
Field Binding of serum SARS-green to looped/cyclic peptides of protein X4 of SARS-CoV Urbani (entry `PCPSGTYEGNSPFHP` ) reads 0.4

====

Field: Binding of Control serum LUMC to looped peptides of the protein X3 of SARS-CoV Urbani. Provide a value for each of the sequences that follow.
System: control sera (pooled serum of ten healthy LUMC hospital workers; commercial negative donor pooled serum from the Dutch bloodbank)
Type: binding, human
Give bare numbers.

Below, 2 sequences whose answers are already recorded.
LIIIMRTFRIAIWNL | 0.7
RQLFKPLTKKNYSEL | 0.7

Please go through the list and note Binding of Control serum LUMC to looped peptides of the protein X3 of SARS-CoV Urbani for each sequence.
1. KNYSELDDEEPMELD
2. SIVRQLFKPLTKKNY
3. LTKKNYSELDDEEPM
4. FHLVDFQVTIAEILI
5. IWNLDVIISSIVRQL
6. AEILIIIMRTFRIAI

[0.8, 0.8, 1.0, 0.8, 0.7, 0.8]

Field Binding of Control serum LUMC to looped peptides of the protein X3 of SARS-CoV Urbani (entry `LVDFQVTIAEILIII` ) reads 0.7
